tested on: LOX IMVI; test: NCI60 one-dose screen (10 μM), Melanoma; type: cell-based, human; details: Homo sapiens; 10 μM; LOX IMVI, Melanoma; read-out: Growth percent rate
measured_property: activity at 10 µM (%)
One number for each entry, in %.

Solved entries:
{"molecule": "CCC12C=CCN3CCC4(c5ccc(OC)cc5N(C)C4C(O)(C(=O)OC)C1OC(=O)CCC(=O)O)C32 (stereo not drawn) [Compound 15, 17-(O-3-carboxypropanoyl)vindoline]", "tested_on": "LOX IMVI", "activity at 10 µM (%)": 107}
{"molecule": "CCC12C=CCN3CCC4(c5cc(NC(=O)CN6CCN(C(=O)c7ccco7)CC6)c(OC)cc5N(C)C4C(O)(C(=O)OC)C1OC(C)=O)C32 (stereo not drawn) [Compound 21]", "tested_on": "LOX IMVI", "activity at 10 µM (%)": 98.5}

Now take the following molecule into account.
# input What is its activity at 10 µM for LOX IMVI? Entry: CCC12C=CCN3CCC4(c5cc(NC(=O)CN6CCN(c7ccc(C(F)(F)F)cc7)CC6)c(OC)cc5N(C)C4C(O)(C(=O)OC)C1OC(C)=O)C32 (stereo not drawn) [Compound 17]
# output -95.4

* * *

Would you mind telling me the reported GI50 of each entry?
test system: SK-MEL-5; assay: NCI60 five-dose screen, Melanoma; assay type: cell-based; details: Homo sapiens; SK-MEL-5, Melanoma; five-dose screen; read-out: GI50
Give bare numbers, in nM.

{"compound": "CCC12C=CCN3CCC4(c5cc(NC(=O)CN6CCN(C(c7ccc(F)cc7)c7ccc(F)cc7)CC6)c(OC)cc5N(C)C4C(O)(C(=O)OC)C1OC(C)=O)C32 (stereo not drawn)", "tested_on": "SK-MEL-5", "GI50 (nM)": 2340}

List reported GI50 for each of these compounds:
1. CC[C@]12C=CCN3CC[C@@]4(c5ccc(OC)cc5N(C)[C@H]4[C@@](O)(C(=O)OC)[C@@H]1OC(=O)CCC(=O)N1CCN(Cc4ccc(C(F)(F)F)cc4)CC1)[C@@H]32
2. CC[C@]12C=CCN3CC[C@@]4(c5ccc(OC)cc5N(C)[C@H]4[C@@](O)(C(=O)OC)[C@@H]1OC(=O)CCCN1CCN(Cc4ccc(C(F)(F)F)cc4)CC1)[C@@H]32

# output
[3890, 1350]

* * *

Would you mind telling me the reported GI50 of each entry?
tested on: HOP-62; assay: NCI60 five-dose screen, Non-small Cell Lung Cancer; type: cell-based; settings: Homo sapiens; HOP-62, Non-small Cell Lung Cancer; five-dose screen; read-out: GI50
Just the number plus its unit, please.

{"molecule": "CCC12C=CCN3CCC4(c5cc(NC(=O)CN6CCN(c7ccc(C(F)(F)F)cc7)CC6)c(OC)cc5N(C)C4C(O)(C(=O)OC)C1OC(C)=O)C32 (stereo not drawn)", "tested_on": "HOP-62", "GI50": "3.72 µM"}
{"molecule": "CC[C@]12C=CCN3CC[C@@]4(c5ccc(OC)cc5N(C)[C@H]4[C@@](O)(C(=O)OC)[C@@H]1OC(=O)CCC(=O)N1CCN(C(c4ccc(F)cc4)c4ccc(F)cc4)CC1)[C@@H]32", "tested_on": "HOP-62", "GI50": "2.55 µM"}

# input Reported GI50 for CCC12C=CCN3CCC4(c5cc(NC(=O)CN6CCN(C(c7ccc(F)cc7)c7ccc(F)cc7)CC6)c(OC)cc5N(C)C4C(O)(C(=O)OC)C1OC(C)=O)C32 (stereo not drawn) : what is it?
# output 89.1 µM

Values from paper PMC11277489
